Assay: MTT assay, normal cell line BJ1
Type: cell-based
Details: human, at 100 μg/ml, read-out: MTT cell proliferation mortality assay (%) BJ1
Quick reference: cytotoxicity at 72 h, 100 μg/ml of the listed items.

MOLECULE: COc1ccc(-c2c(Cl)n(-c3ccc(Cl)cc3Cl)c3ncnc(N4CCOCC4)c23)cc1OC [Compound 18b]
cytotoxicity at 72 h, 100 μg/ml, %: 20.6
//
MOLECULE: COc1ccc(-c2c(Cl)n(-c3ccc(Cl)cc3Cl)c3ncnc(Cl)c23)cc1OC
cytotoxicity at 72 h, 100 μg/ml, %: 22.5
//
MOLECULE: Clc1ccc(-n2cc(-c3ccc(Br)cc3)c3c(Cl)ncnc32)c(Cl)c1
cytotoxicity at 72 h, 100 μg/ml, %: 16.3
//
MOLECULE: S=c1[nH]cnc2c1c(-c1ccc(Br)cc1)c(Cl)n2-c1ccc(Cl)cc1Cl
cytotoxicity at 72 h, 100 μg/ml, %: 100
//
MOLECULE: Clc1ccc(-n2c(Cl)c(-c3ccc(Br)cc3)c3c(N4CCOCC4)nc(C(Cl)(Cl)Cl)nc32)c(Cl)c1
cytotoxicity at 72 h, 100 μg/ml, %: 52.7
//
MOLECULE: COc1ncnc2c1c(-c1ccc(Br)cc1)c(Cl)n2-c1ccc(Cl)cc1Cl
cytotoxicity at 72 h, 100 μg/ml, %: 37.8
//
MOLECULE: Cc1nc2c(c(-c3ccc(Br)cc3)cn2-c2ccc(Cl)cc2Cl)c(=O)[nH]1
cytotoxicity at 72 h, 100 μg/ml, %: 84.9
//
MOLECULE: Clc1ccc(-n2c(Cl)c(-c3ccc(Br)cc3)c3c(N4CCCC4)nc(C(Cl)(Cl)Cl)nc32)c(Cl)c1
cytotoxicity at 72 h, 100 μg/ml, %: 100
//
MOLECULE: CSc1ncnc2c1c(-c1ccc(Br)cc1)c(Cl)n2-c1ccc(Cl)cc1Cl
cytotoxicity at 72 h, 100 μg/ml, %: 25.3
